The values you see were collected from PubChem BioAssay (NCI).

Here, each record is paired with measured TGI data.
- System: M14 melanoma
- Test Protocol: NCI tumour cell line growth inhibition, 48 h
Measured Attribute: TGI

>  <Compound>
COc1ccc(-c2csc(Nc3cccc(-c4csc(C)n4)c3)n2)cc1

>  <Measured Attribute>
TGI

>  <Reported>
14.2 µM

$$$$
>  <Compound>
CC1(C)OC(=O)C(=C2CCC(C(=O)Nc3cccc(C(F)(F)F)c3)N2)C(=O)O1 (stereo not given)

>  <Measured Attribute>
TGI

>  <Reported>
> 100 µM

$$$$
>  <Compound>
CCOC(=O)c1c[nH]c(C(=O)C=[N+]=[N-])c1C1CCN(CC)C1=S (stereo not given)

>  <Measured Attribute>
TGI

>  <Reported>
> 100 µM

$$$$
>  <Compound>
Cc1ccc(S(=O)C(C)C(Cl)c2ccccc2)cc1 (stereo not given)

>  <Measured Attribute>
TGI

>  <Reported>
> 100 µM

$$$$
>  <Compound>
CCCNCCCCC(NC(C)=O)C(=O)NCc1ccccc1 (stereo not given)

>  <Measured Attribute>
TGI

>  <Reported>
> 100 µM

$$$$
>  <Compound>
Cc1ccc(-c2cc(-c3ccc(Cl)cc3)nc(/N=C3\C(=O)N(CN(C)C)c4ccccc43)n2)cc1

>  <Measured Attribute>
TGI

>  <Reported>
> 100 µM

$$$$
>  <Compound>
COc1ccc2[nH]c3c(c2c1)[C@H]1CCC(C(C)(C)C)C[C@H]1[C@H]1C(=O)N(c2ccccc2)C(=O)[C@@H]31 (stereo not given in full)

>  <Measured Attribute>
TGI

>  <Reported>
30.6 µM

$$$$
>  <Compound>
COC(=O)c1c(O)ccc2c1c1cc3ccccc3c(O)c1n2CCc1ccc(OC)c(OC)c1

>  <Measured Attribute>
TGI

>  <Reported>
> 100 µM

$$$$
>  <Compound>
CCc1n[nH]c(=O)n1/N=C(\C)c1ccccc1

>  <Measured Attribute>
TGI

>  <Reported>
> 100 µM

$$$$
>  <Compound>
Cc1c(-c2ccccc2)[nH]c2cn[nH]c(=O)c12

>  <Measured Attribute>
TGI

>  <Reported>
> 100 µM

$$$$

* * *

- Tested on: HT29 colon
- Test Protocol: NCI tumour cell line growth inhibition, 48 h

>  <Compound>
COc1cc(OC)c2c(=O)c3cccc([N+](=O)[O-])c3n(C)c2c1

>  <TGI>
> 100 µM

$$$$
>  <Compound>
CC(C)OP(=O)(O)c1ncc(-c2ccc(C(F)(F)F)cc2)c(NC2CCCCCC2)n1

>  <TGI>
> 100 µM

$$$$
>  <Compound>
CCCCOC/N=C(/N)NC#N

>  <TGI>
> 100 µM

$$$$
>  <Compound>
O=C(Nc1ccccc1)OCCN=C1c2ccccc2CCc2ccccc21

>  <TGI>
37 µM

$$$$
>  <Compound>
CCc1ccc2c(c1)N(CCO)C1=C(C(=O)OC1)C2c1cc(OC)c(OC)c(OC)c1 (configuration not stated)

>  <TGI>
0.447 µM

$$$$
>  <Compound>
COc1ccc(-c2csc(Nc3cccc(-c4csc(C)n4)c3)n2)cc1

>  <TGI>
> 50 µM

$$$$
>  <Compound>
CCCc1cc(OC(=O)c2c(O)cc(OC)cc2CCC)cc(O)c1C(=O)O

>  <TGI>
> 100 µM

$$$$
>  <Compound>
CC(=O)Nc1cccc(N2C(=O)/C(=C\c3cccc(Oc4ccccc4)c3)SC2c2ccccc2)c1 (configuration not stated)

>  <TGI>
> 100 µM

$$$$
>  <Compound>
CCOC(=O)c1c(CN2CCN(C)CC2)nc2ccc(Cl)cc2c1-c1ccccc1

>  <TGI>
6.16 µM

$$$$
>  <Compound>
COc1ccc(COCC[C@H](C)OC2OC(CO)C(O)C(O)C2O)cc1 (some centres not stated)

>  <TGI>
> 100 µM

$$$$
>  <Compound>
COC(=O)/C=C(\C)CCC1SC1(C)C (configuration not stated)

>  <TGI>
> 100 µM

$$$$
>  <Compound>
C1CSCC2(COC2)CSCCSCC2(COC2)CS1

>  <TGI>
> 100 µM

$$$$
>  <Compound>
O=c1[nH][nH]c(=O)c2c1ccc1oc3ccccc3c12

>  <TGI>
> 100 µM

$$$$
>  <Compound>
Cc1cc(S(N)(=O)=O)c(S/C(=N\NS(=O)(=O)c2ccccc2)c2ccc(Cl)cc2)cc1Cl

>  <TGI>
> 100 µM

$$$$
>  <Compound>
C=C1C2=C(CCCC2)C(=O)OC12CCCCC2

>  <TGI>
> 100 µM

$$$$
>  <Compound>
COc1ccc(N2C(=O)C(=O)C3(CCCCC3)C2=O)c2ccccc12

>  <TGI>
> 10 µM

$$$$
>  <Compound>
CNC(=O)OCc1nc(SC)n(C)c1COC(=O)NC

>  <TGI>
605 µM

$$$$
>  <Compound>
C[As](C)SC1OCC(O)C(O)C1O (configuration not stated)

>  <TGI>
> 100 µM

$$$$
>  <Compound>
CC1(C)OC(=O)C(=C2CCC(C(=O)Nc3cccc(C(F)(F)F)c3)N2)C(=O)O1 (configuration not stated)

>  <TGI>
> 100 µM

$$$$
>  <Compound>
COc1cc(C2c3cc4c(cc3C(=O)C3CCC(=O)N32)OCO4)cc(OC)c1O (configuration not stated)

>  <TGI>
> 50 µM

$$$$
>  <Compound>
CC(=O)Oc1cc2cnc3c4cc(OC(C)=O)c(OC(C)=O)cc4ccc3c2cc1OC(C)=O

>  <TGI>
> 100 µM

$$$$
>  <Compound>
CCCCCCCCCCCCOCC1(COCCCCCCCCCCCC)COC(c2ccc(N)cc2)OC1

>  <TGI>
> 100 µM

$$$$
